- system tested: T1, PUF4 RNA-binding domain (Saccharomyces cerevisiae, UniProt P25339 537-888)
- T1 sequence: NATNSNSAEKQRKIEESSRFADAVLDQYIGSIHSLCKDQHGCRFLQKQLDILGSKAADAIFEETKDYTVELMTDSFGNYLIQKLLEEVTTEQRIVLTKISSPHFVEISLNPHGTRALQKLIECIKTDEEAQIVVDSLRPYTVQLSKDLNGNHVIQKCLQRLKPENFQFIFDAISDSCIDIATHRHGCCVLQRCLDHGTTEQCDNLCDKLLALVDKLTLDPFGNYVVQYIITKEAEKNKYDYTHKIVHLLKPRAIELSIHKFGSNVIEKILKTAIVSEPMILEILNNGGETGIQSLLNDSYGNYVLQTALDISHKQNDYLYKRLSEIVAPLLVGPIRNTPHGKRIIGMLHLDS
- assay protocol: Mg; RNA-MaP; 20 mM Na-HEPES pH 7.4, 30 mM KOAc, 0.75 mM MgCl2, 0.1% Tween-20, 5% glycerol, 0.1 mg/mL BSA, 2 mM DTT; 25 C; 0.0125-409.6 nM protein
- protocol conditions: tags: N-His6-TEV cleaved; C-SNAP kept, Cy3B-labelled; label: tethered on chip by stalled RNA polymerase
pKd: −log10 of the molar value.
Use y when the recorded pKd is no lower than 7; use n when it is lower.

Worked set:
UCUCUUCCACACUUAUUAACUCUCUU (ssRNA) [Id_ii_S1_P5E.4_K5.3_C5.2_[T-1C]_H5.3_A5.1_F5.1_T5.2_[T11A]_[A12C]]; n
UCUCUUUGUAUUCGAUCUCUU (ssRNA) [Ic_S1_P4E.1_K4.1_C4.1_H4.1_A4.1_[A6T]_[T7C]_F4.1_[T8G]_T4.1]; n
UCUCUUUCUAUAUAUUAUAUCUCUU (ssRNA) [Id_ii_S1_P4E.3_K4.2_C4.2_[C-2T]_[T-1C]_H4.2_A4.1_F4.1_T4.2_[G10T]_[T11A]]; y
UCUCUUUGUAUCACUAUCUCUU (ssRNA) [Ib_S1_P5E.1_K5.1_C5.1_H5.1_A5.1_[T6C]_F5.1_[T8C]_T5.1]; y
Ia_S2_P5E.1_K5.1_C5.1_H5.1_A5.1_F5.1_[A10T]_T5.1 (ssRNA) RNA: UUUGAUUAAUAUGAUAUCGUUCUUUCUUGUAUUAUUUUUCUUUCUCGAUAUCAUAUUAAUCUUU; y

Okay, now this binder:
Task: Is it the case that Id_ii_S2_P4E.2_K4.1_C4.2_[C-2T]_[T-1G]_H4.1_A4.1_F4.1_T4.2_[G10A] (ssRNA) RNA: UUUGAUUAAUAUGAUAUCGUUCUUUCUUGUGUAUAUUAAUUUCUUUCUCGAUAUCAUAUUAAUCUUU has pKd reaching or exceeding 7?
Output: y

Data origin, for the record: paper PMC9352680
